Recorded inhibition, one value per entry.
# tgt: 5-hydroxytryptamine receptor 7 (Homo sapiens)
# assay summary: Displacement of [3H]SB269970 from human 5-HT7 receptor expressed in HEK cell membrane at 10 uM incubated for 60 mins by microplate beta scintillation counting analysis
# Format: cell membranes

molecule	output unit	inhibition
CCN(CC)CCCCN1N=C2c3sccc3CCC2CC1=O (stereo not drawn)	%	10
O=C1CC2CCc3ccsc3C2=NN1CCN1CCN(Cc2ccccc2)CC1 (stereo not drawn)	%	26
O=C1CC2Cc3ccsc3C2=NN1CCCCCCN1CCN(Cc2cccc3c2ccn3S(=O)(=O)c2ccccc2)CC1 (stereo not drawn)	%	39
CN(C)CCCCN1N=C2c3sccc3CCC2CC1=O (stereo not drawn)	%	24
O=C1CC2CCc3ccsc3C2=NN1CCCCN1CCCC1 (stereo not drawn)	%	16
O=C1CC2CCc3ccsc3C2=NN1CN1CCN(Cc2ccccc2)CC1 (stereo not drawn)	%	23
O=C1CC2CCc3ccsc3C2=NN1CCCCN1CCCCC1 (stereo not drawn)	%	18
O=C1CC2CCc3ccsc3C2=NN1CCCCCCN1CCN(Cc2cccc3c2ccn3S(=O)(=O)c2ccccc2)CC1 (stereo not drawn)	%	33

---

Target sequence: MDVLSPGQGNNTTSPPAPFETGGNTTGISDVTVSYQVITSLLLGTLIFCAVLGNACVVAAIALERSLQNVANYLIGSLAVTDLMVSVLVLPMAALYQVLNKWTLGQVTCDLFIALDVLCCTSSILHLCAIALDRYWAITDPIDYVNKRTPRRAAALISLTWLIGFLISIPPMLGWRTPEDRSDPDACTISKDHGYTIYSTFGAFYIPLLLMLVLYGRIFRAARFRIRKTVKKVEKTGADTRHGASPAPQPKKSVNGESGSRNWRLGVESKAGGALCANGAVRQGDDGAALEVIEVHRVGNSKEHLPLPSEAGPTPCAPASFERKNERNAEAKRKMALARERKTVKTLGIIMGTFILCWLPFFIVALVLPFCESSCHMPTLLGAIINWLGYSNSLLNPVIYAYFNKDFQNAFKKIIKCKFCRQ
pKi: −log10 of the molar value.
observation type: pKi

molecule	observation type	value measured
O=C1CC2CCc3ccsc3C2=NN1CCCCN1CCCCC1 (stereo not drawn)	pKi	5.37
CCN(CC)CCCCN1N=C2c3sccc3CCC2CC1=O (stereo not drawn)	pKi	5.06
O=C1CC2CCc3ccsc3C2=NN1CCCCN1CCN(Cc2cccc3c2ccn3S(=O)(=O)c2ccccc2)CC1 (stereo not drawn)	pKi	5.55

---

# tgt: 5-hydroxytryptamine receptor 6 (Homo sapiens, UniProt P50406)
# Sequence (P50406 whole entry): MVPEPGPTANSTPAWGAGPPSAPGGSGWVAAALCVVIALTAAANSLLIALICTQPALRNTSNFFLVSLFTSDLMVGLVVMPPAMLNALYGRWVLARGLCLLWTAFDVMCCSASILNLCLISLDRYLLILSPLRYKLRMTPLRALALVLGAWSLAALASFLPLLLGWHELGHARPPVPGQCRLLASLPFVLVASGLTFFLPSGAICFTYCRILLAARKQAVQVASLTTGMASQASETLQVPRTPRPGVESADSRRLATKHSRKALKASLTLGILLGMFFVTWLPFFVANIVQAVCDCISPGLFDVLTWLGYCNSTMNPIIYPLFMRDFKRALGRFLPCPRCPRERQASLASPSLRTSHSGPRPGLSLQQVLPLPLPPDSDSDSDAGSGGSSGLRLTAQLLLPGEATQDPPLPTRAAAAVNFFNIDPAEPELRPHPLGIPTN
pKi: −log10 of the molar value.
Label scheme for pKi: lower than 6 is criterion not met, 6 and above is criterion met.

compound	label value
O=C1CC2CCc3ccsc3C2=NN1CCCCN1CCN(Cc2cccc3c2ccn3S(=O)(=O)c2ccccc2)CC1 (stereo not drawn)	criterion met
O=C1CC2CCc3ccsc3C2=NN1CCCCN1CCN(Cc2ccccc2)CC1 (stereo not drawn)	criterion not met
O=C1CC2Cc3ccsc3C2=NN1CCCCCN1CCN(Cc2cccc3c2ccn3S(=O)(=O)c2ccccc2)CC1 (stereo not drawn)	criterion met
O=C1CC2CCc3ccsc3C2=NN1CCCCCCN1CCN(Cc2cccc3c2ccn3S(=O)(=O)c2ccccc2)CC1 (stereo not drawn)	criterion met
O=C1CC2Cc3ccsc3C2=NN1CCCCCCN1CCN(Cc2cccc3c2ccn3S(=O)(=O)c2ccccc2)CC1 (stereo not drawn)	criterion met
O=C1CC2CCc3ccsc3C2=NN1CCN1CCN(Cc2ccccc2)CC1 (stereo not drawn)	criterion not met
O=C1CC2CCc3ccsc3C2=NN1CCCCCN1CCN(Cc2cccc3c2ccn3S(=O)(=O)c2ccccc2)CC1 (stereo not drawn)	criterion met
O=C1CC2Cc3ccsc3C2=NN1CCCCN1CCN(Cc2cccc3c2ccn3S(=O)(=O)c2ccccc2)CC1 (stereo not drawn)	criterion met
O=C1CC2CCc3ccsc3C2=NN1CCCCCCCN1CCN(Cc2cccc3c2ccn3S(=O)(=O)c2ccccc2)CC1 (stereo not drawn)	criterion met
O=C1CC2Cc3ccsc3C2=NN1CCCCCCCN1CCN(Cc2cccc3c2ccn3S(=O)(=O)c2ccccc2)CC1 (stereo not drawn)	criterion met
O=C1CC2Cc3ccsc3C2=NN1CCCCN1CCN(Cc2ccccc2)CC1 (stereo not drawn)	criterion not met

---

# tgt: 5-hydroxytryptamine receptor 6 (Homo sapiens, UniProt P50406)
# assay summary: Displacement of [3H]-LSD from human 5-HT6 receptor expressed in HEK cell membrane at 10 uM incubated for 60 mins by microplate beta scintillation counting analysis
# Assay type: cell membranes
Values of inhibition greater than or equal to 30% map to condition met; values below map to condition not met.

compound	label value
CCN(CC)CCCCN1N=C2c3sccc3CCC2CC1=O (stereo not given)	condition not met
O=C1CC2CCc3ccsc3C2=NN1CN1CCN(Cc2ccccc2)CC1 (stereo not given)	condition not met
O=C1CC2CCc3ccsc3C2=NN1CCCCN1CCCC1 (stereo not given)	condition met
CN(C)CCCCN1N=C2c3sccc3CCC2CC1=O (stereo not given)	condition met

---

# tgt: 5-hydroxytryptamine receptor 7 (Homo sapiens, UniProt P34969)
# Sequence (P34969 whole entry): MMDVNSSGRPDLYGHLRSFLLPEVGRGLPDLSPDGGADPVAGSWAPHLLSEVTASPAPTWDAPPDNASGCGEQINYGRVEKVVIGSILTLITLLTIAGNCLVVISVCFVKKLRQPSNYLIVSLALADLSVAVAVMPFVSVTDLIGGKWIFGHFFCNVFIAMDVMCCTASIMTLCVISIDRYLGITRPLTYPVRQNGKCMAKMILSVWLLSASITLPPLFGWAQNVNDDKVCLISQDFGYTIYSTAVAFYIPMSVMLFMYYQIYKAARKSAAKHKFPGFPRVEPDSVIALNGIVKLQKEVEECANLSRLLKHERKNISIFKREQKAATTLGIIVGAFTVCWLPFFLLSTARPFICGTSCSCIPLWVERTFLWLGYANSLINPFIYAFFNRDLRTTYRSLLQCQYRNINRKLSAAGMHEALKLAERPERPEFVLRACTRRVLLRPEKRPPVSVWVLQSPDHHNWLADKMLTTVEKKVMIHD
Criterion: Ki strictly less than 2 µM. Met: label 1. Not met: label 0.

molecule	label value
O=C1CC2CCc3ccsc3C2=NN1CCCCCN1CCN(Cc2cccc3c2ccn3S(=O)(=O)c2ccccc2)CC1 (centres undefined)	label 1
O=C1CC2Cc3ccsc3C2=NN1CCCCN1CCN(Cc2ccccc2)CC1 (centres undefined)	label 1
O=C1CC2CCc3ccsc3C2=NN1CCCCN1CCN(Cc2ccccc2)CC1 (centres undefined)	label 1
O=C1CC2CCCc3ccsc3C2=NN1CCCCN1CCN(Cc2ccccc2)CC1 (centres undefined)	label 1
O=C1CC2CCc3ccsc3C2=NN1Cc1ccc(CN2CCN(Cc3ccccc3)CC2)cc1 (centres undefined)	label 0
O=C1CC2Cc3ccsc3C2=NN1CCCCCN1CCN(Cc2cccc3c2ccn3S(=O)(=O)c2ccccc2)CC1 (centres undefined)	label 1
O=C1CC2Cc3ccsc3C2=NN1CCCCCCCN1CCN(Cc2cccc3c2ccn3S(=O)(=O)c2ccccc2)CC1 (centres undefined)	label 0

---

# tgt: UniProtKB P08908
Note to self: use yes only for Ki readings below 1 µM; a reading exactly at 1 µM still gets no.

molecule	label value
O=C1CC2CCc3ccsc3C2=NN1CCCCN1CCCC1 (stereo not given)	no
O=C1CC2Cc3ccsc3C2=NN1CCCCCCCN1CCN(Cc2cccc3c2ccn3S(=O)(=O)c2ccccc2)CC1 (stereo not given)	no
O=C1CC2CCc3ccsc3C2=NN1Cc1ccc(CN2CCN(Cc3ccccc3)CC2)cc1 (stereo not given)	yes
O=C1CC2CCc3ccsc3C2=NN1CCCCN1CCN(Cc2ccccc2)CC1 (stereo not given)	yes
O=C1CC2Cc3ccsc3C2=NN1CCCCCCN1CCN(Cc2cccc3c2ccn3S(=O)(=O)c2ccccc2)CC1 (stereo not given)	no
O=C1CC2Cc3ccsc3C2=NN1CCCCCN1CCN(Cc2cccc3c2ccn3S(=O)(=O)c2ccccc2)CC1 (stereo not given)	no
O=C1CC2CCc3ccsc3C2=NN1CCN1CCN(Cc2ccccc2)CC1 (stereo not given)	no
O=C1CC2CCCc3ccsc3C2=NN1CCCCN1CCN(Cc2ccccc2)CC1 (stereo not given)	yes
O=C1CC2Cc3ccsc3C2=NN1CCCCN1CCN(Cc2cccc3c2ccn3S(=O)(=O)c2ccccc2)CC1 (stereo not given)	no
O=C1CC2Cc3ccsc3C2=NN1CCCCN1CCN(Cc2ccccc2)CC1 (stereo not given)	yes

---

# tgt: 5-hydroxytryptamine receptor 4 (Homo sapiens, UniProt Q13639)
# Sequence (Q13639 whole entry): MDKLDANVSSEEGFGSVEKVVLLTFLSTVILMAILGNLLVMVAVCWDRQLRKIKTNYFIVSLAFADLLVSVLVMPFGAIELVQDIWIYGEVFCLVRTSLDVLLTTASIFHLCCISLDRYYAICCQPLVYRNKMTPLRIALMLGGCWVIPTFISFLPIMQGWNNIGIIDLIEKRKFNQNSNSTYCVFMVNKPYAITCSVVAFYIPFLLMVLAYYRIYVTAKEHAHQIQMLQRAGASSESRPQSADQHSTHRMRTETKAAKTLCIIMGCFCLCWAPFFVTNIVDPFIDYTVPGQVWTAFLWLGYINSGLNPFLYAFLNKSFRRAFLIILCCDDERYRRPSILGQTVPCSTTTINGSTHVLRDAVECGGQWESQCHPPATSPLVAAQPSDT
# assay summary: Antagonist activity at 5-HT4 receptor in human HeLa cells assessed as inhibition of intracellular calcium mobilization incubated for 2 hrs by FLIPR assay
pKi: −log10 of the molar value.

chem smiles	tgt	pKi
Cn1cc(C(=O)OCC2CCN(CCNS(C)(=O)=O)CC2)c2ccccc21	5-hydroxytryptamine receptor 4 (Homo sapiens, UniProt Q13639)	8.85

// provenance: ChEMBL document CHEMBL5252646
